# key: entry, value: GI50
protocolDetails: Cytotoxicity against human HeLa cells assessed as inhibition of cell growth by cell viability assay
Format: toxicity, cell-based
Quick note: give the figure in µg/mL, leave out the unit.

These recorded examples may help you get a feel for the data.
| entrySmiles | GI50, µg/mL |
| --- | --- |
| Fc1cccc(Nc2nc3nonc3nc2Nc2cccc(F)c2)c1 | 20 |
| Clc1ccc(Nc2nc3nonc3nc2Nc2ccc(Cl)cc2)cc1 | 28 |

From here, focus on the item given below.
(Q) Name the reported GI50 value associated with the molecule "Clc1cccc(Nc2nc3nonc3nc2Nc2cccc(Cl)c2)c1"
(A) 11
